- TGT: adenosine A2B receptor (Homo sapiens (Human), UniProt P29275)
- Sequence (P29275 whole entry): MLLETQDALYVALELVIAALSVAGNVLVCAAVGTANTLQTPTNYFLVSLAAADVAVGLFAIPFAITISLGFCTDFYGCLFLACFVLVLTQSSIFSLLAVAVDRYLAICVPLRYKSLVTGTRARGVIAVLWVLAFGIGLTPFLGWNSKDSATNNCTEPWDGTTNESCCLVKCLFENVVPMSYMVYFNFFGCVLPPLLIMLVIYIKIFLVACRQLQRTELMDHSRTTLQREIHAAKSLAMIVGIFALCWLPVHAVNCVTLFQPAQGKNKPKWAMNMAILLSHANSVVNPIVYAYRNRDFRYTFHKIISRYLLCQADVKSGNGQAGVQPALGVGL
- EXPERIMENT_DESCRIPTION: Adenosine receptor activity assay (Table 1), A2B activity
- Type: biochemical
- CONDITION_SUMMARY: A2A activity to A2B activity (A2A/A2B)
Ratio overview
Form: value (number only, do not type unit).

Example entries and their recorded answers appear below.
COMPOUND	Ratio
COCC(Nc1nc(C(=O)N[C@H]2C[C@@H](O)C2)c2sccc2n1)c1cccnc1 (some centres unmarked)	8.99
O=C(c1nc(NCc2cncc(F)c2)nc2ccsc12)N1CCNC1	14.43
COCC(Nc1nc(C(=O)N2CC(OC)C2)c2sccc2n1)c1cccnc1 (centres unmarked)	5.70

Tell me the measured Ratio of C[C@H](Nc1nc(C(=O)N2CCCC2)c2sccc2n1)c1cccc(F)c1 , please.
15.42

So what's the measured Ratio for this one? C[C@H](Nc1nc(C(=O)N[C@@H]2CC[C@@H](O)C2)c2sccc2n1)c1cncc(F)c1
32.64
